# Experimental Target: GATA4/NKX2-5 (Mus musculus) (UniProt Q08369+P42582)
# Experiment Description: Modulation of mouse GATA4/mouse NKX2-5 protein-protein interaction expressed in Chlorocebus aethiops COS1 cells harboring 3xHA reporter gene assessed as transcriptional synergy at 10 uM after 24 hrs by luciferase reporter gene assay relative to control
# Assay type: cell-based
Consider the following molecules and their measured Activity readings.
All answers are understood in %, so give the number only.

Some solved cases for reference:
CCN(CC)c1ccc(NC(=O)c2csc([N+](=O)[O-])c2)cc1 | 25
CCN(CC)c1ccc(NC(=O)c2cc(-c3ccc(Br)cc3)oc2C(F)(F)F)cc1 | 85
CCN(c1ccc(NC(=O)c2c(-c3ccccc3)noc2C)cc1N)C(C)C | 76
C#Cc1ccc(NC(=O)c2c(-c3ccccc3)noc2C)cc1 | 84
CCN(CC)c1ccc(NC(=O)c2c(-c3ccc(C)s3)noc2C)cc1 | 100

Now for the molecule whose Activity we want.
Data request: Fill in the recorded Activity for this molecule, with GATA4/NKX2-5 (Mus musculus) (UniProt Q08369+P42582) as test system: Cc1onc(-c2ccccc2)c1COc1ccc(C(=O)OCCCC#N)cc1
Data returned: 52
